Provenance of the data: PubChem BioAssay AID686979

experiment: qHTS for Inhibitors of human tyrosyl-DNA phosphodiesterase 1 (TDP1): qHTS in cells in presence of CPT; settings: chicken DT40 Tdp1-/-;hTDP1 cells + 20 nM CPT, ATP luminescence, 48 h; series mostly up to 46.2 µM; further: nearly all actives have a fitted effect of over 55% in size
About 50,000 (12%) of roughly 420,000 compounds were called active. About 26% were inconclusive and are not listed. The call rests on the fitted dose curve; in most records, active means well fitted inhibition curve with a large enough effect; inconclusive means small, poorly fitted or top-dose-only effect; inactive means flat fitted curve, though single readings scatter. This excerpt belongs to a sample that is enriched for actives.
Could you please pick one outcome from this set? active, inactive

COc1ccccc1NS(=O)(=O)c1ccc(C)c(C(=O)NCC(c2ccco2)N(C)C)c1 (stereo unspecified) ... inactive
CC(=O)c1ccc(S(=O)(=O)NC2CC(=O)N(c3ccc4c(c3)OCCO4)C2)cc1 (stereo unspecified) ... inactive
CCOC(=O)CSc1ncc(-c2cccc(Cl)c2)cn1 ... inactive
Cc1cccc(C(=O)Nc2ccc(-c3nc4ccccc4s3)c(C)c2)c1 ... inactive

input: // outcome(item) with item = `CC(C)c1ccc(NC(=O)Cn2nnc(C(=O)NCCc3ccccc3)c2N)cc1`
output: inactive

input: // outcome(item) with item = `CCc1nc2ccc(C(=O)N3CCC(O)(Cc4ccccc4)CC3)cn2c1N(C)C(=O)Cc1ccccc1`
output: inactive

input: // outcome(item) with item = `CCOc1cc(NC(=O)c2ccccc2C(=O)O)c(OCC)cc1NC(=O)c1ccccc1F`
output: inactive

input: // outcome(item) with item = `CCOc1cc(N2CCOCC2)c(OCC)cc1NC(=O)c1ccc(C)s1`
output: active

input: // outcome(item) with item = `O=C(NC1CCCC1)C(=O)c1c[nH]c2ccccc12`
output: inactive

input: // outcome(item) with item = `Cc1c(NC(=O)C(C)(C)C)cccc1-c1nc2ccccc2s1`
output: active

input: // outcome(item) with item = `CCOc1ccc(CCNC(=O)Cn2nc(CC)n3c(cc4sc(CC)cc43)c2=O)cc1OCC`
output: active

input: // outcome(item) with item = `COC(=O)c1ccc(N2CCOCC2)c(NC(=O)c2ccc3c(c2)OCCO3)c1`
output: inactive

input: // outcome(item) with item = `CCc1nc2ccc(C(=O)Nc3cccc(OC)c3)cn2c1N(CCC(C)C)CCN(C)C`
output: inactive

input: // outcome(item) with item = `CCOc1cc(N2CCOCC2)c(OCC)cc1NC(=O)COc1cccc2cccnc12`
output: active

input: // outcome(item) with item = `CCc1nc2ccc(C(=O)Nc3cc(-c4ccccc4)ccc3OC)cn2c1N(CC)CC(=O)N(C)C`
output: active

input: // outcome(item) with item = `Cc1ccc(S(=O)(=O)N(C)C)cc1NC(=O)CN1c2cccc3cccc(c23)S1(=O)=O`
output: inactive

input: // outcome(item) with item = `Cn1nc(-c2ccccc2)c(CSc2cccc(Cl)c2)c1Cl`
output: active

input: // outcome(item) with item = CCC(C(=O)Nc1cccc(-c2nc3cccnc3s2)c1C)c1ccccc1 (stereo unspecified)
output: active

input: // outcome(item) with item = CCC(C(=O)Nc1ccc(C(C)C)cc1)c1ccccc1 (stereo unspecified)
output: inactive

input: // outcome(item) with item = `CCc1cc2c(cc3c(=O)n(CC(=O)NCCc4ccc(OC)c(OC)c4)ncn32)s1`
output: inactive

input: // outcome(item) with item = `NC(=O)C1CCN(C(=O)COc2cccc3cccnc23)CC1`
output: inactive

====

assay: qHTS for Inhibitors of human tyrosyl-DNA phosphodiesterase 1 (TDP1): qHTS in cells in presence of CPT; conditions: chicken DT40 Tdp1-/-;hTDP1 cells + 20 nM CPT, ATP luminescence, 48 h; series mostly up to 46.2 µM; further: nearly all actives have a fitted effect of over 55% in size
About 50,000 (12%) of roughly 420,000 compounds were called active. Inconclusive results (about 26%) are left out. The call rests on the fitted dose curve; in most records, active means well fitted inhibition curve with a large enough effect; inconclusive means small, poorly fitted or top-dose-only effect; inactive means flat fitted curve, though single readings scatter. What follows is part of a selection rich in actives, with near analogues and random picks from the rest.
Could you please pick one outcome from this set? Yes = active, No = inactive

Past entries and their recorded results:
Cc1ccc2c(Cl)c(C(=O)NCCCn3ccnc3)sc2c1 ... No
COc1cccc(C=CC(=O)C=CC=Cc2ccccc2)c1 ... Yes
COc1cccc(N2CC(NC(=O)/C=C\c3ccccc3)CC2=O)c1 (stereo unspecified) ... No
CC(C)N(C(=O)Cn1cc(S(=O)(=O)CC(=O)N2CCOCC2)c2ccccc21)C(C)C ... No
Cc1ccc(-n2ncc3c(NCCCn4ccnc4)ncnc32)cc1Cl ... Yes

Moving on to the next compound.
input: // outcome(item) with item = `COc1cccc(C(=O)NNC(=O)/C=C/c2ccccc2)c1`
output: No
